# tested system: Bta mt-EF-Tu D384K (Bos taurus, UniProt P49410 44-452, D384K)
# assay overview: DRaCALA; GTP; DRaCALA of EF-Tu:GTP:Phe-tRNA ternary complexes, 2 ul spotted on nitrocellulose, n>=3; binding buffer, pH and temperature not in the material
pKd: −log10 of the molar value.
assay readout: pKd

• Phe-tRNAPhe (canonical) (structured_RNA, 3'-aminoacylated with Phe (flexizyme)) RNA: GCGGAUUUAGCUCAGUUGGGAGAGCGCCAGACUGAAGAUCUGGAGGUCCUGUGUUCGAUCCACAGAAUUCGCACCA = 7.12
